- measured.target: T1, B3GNT2 (Homo sapiens, UniProt Q9NY97)
- T1 construct: The respective ORFs of candidate genes [CD274 (NM_014143), MCL1 (NM_021960), JUNB (NM_002229), and B3GNT2 (NM_006577)] were synthesized; expressed in transfected cells; host or cells: A375 melanoma cells (lentiviral ORF overexpression)
- T1 sequence (Q9NY97 1-397): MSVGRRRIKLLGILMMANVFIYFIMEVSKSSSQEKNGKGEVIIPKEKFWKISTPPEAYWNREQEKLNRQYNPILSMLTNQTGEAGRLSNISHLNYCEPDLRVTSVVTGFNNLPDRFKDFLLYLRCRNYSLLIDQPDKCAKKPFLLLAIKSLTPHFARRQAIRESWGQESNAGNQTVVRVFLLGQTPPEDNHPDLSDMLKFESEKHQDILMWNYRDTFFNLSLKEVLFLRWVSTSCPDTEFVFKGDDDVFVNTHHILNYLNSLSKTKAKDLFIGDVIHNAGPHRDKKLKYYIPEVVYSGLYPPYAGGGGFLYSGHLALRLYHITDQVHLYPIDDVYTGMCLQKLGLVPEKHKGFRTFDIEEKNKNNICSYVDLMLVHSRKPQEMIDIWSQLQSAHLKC
- assay.procedure: Co-IP of FLAG-tagged B3GNT2 followed by mass spectrometry
- Assay type: cell-based
- Set-up: unit not given here
- condition.parameters: Co-IP with IgG control antibody, C-terminally FLAG-tagged B3GNT2; mass spectrometry count, unit not given
Listed molecules paired with reported C-term IgG
Number only, please.

Worked cases, C-term IgG given:
{"molecule": "CASP14 (protein) MSNPRSLEEEKYDMSGARLALILCVTKAREGSEEDLDALEHMFRQLRFESTMKRDPTAEQFQEELEKFQQAIDSREDPVSCAFVVLMAHGREGFLKGEDGEMVKLENLFEALNNKNCQALRAKPKVYIIQACRGEQRDPGETVGGDEIVMVIKDSPQTIPTYTDALHVYSTVEGYIAYRHDQKGSCFIQTLVDVFTKRKGHILELLTEVTRRMAEAELVQEGKARKTNPEIQSTLRKRLYLQ", "C-term IgG": 4}
{"molecule": "CTHRC1 (protein) MWPPGRSITVKLREKTVSRKLEMNGPSAFQGLICGKYNGMCLQGPAGVPGRDGSPGANGIPGTPGIPGRDGFKGEKGECLRESFEESWTPNYKQCSWSSLNYGIDLGKIAECTFTKMRSNSALRVLFSGSLRLKCRNACCQRWYFTFNGAECSGPLPIEAIIYLDQGSPEMNSTINIHRTSSVEGLCEGIGAGLVDVAIWVGTCSDYPKGDASTGWNSVSRIIIEELPK", "C-term IgG": 0}

Shifting focus to the molecule that follows.
Form field: reported C-term IgG of DNAJB11 (protein) GRDFYKILGVPRSASIKDIKKAYRKLALQLHPDRNPDDPQAQEKFQDLGAAYEVLSDSEKRKQYDTYGEEGLKDGHQSSHGDIFSHFFGDFGFMFGGTPRQQDRNIPRGSDIIVDLEVTLEEVYAGNFVEVVRNKPVARQAPGKRKCNCRQEMRTTQLGPGRFQMTQEVVCDECPNVKLVNEERTLEVEIEPGVRDGMEYPFIGEGEPHVDGEPGDLRFRIKVVKHPIFERRGDDLYTNVTISLVESLVGFEMDITHLDGHKVHISRDKITRPGAKLWKKGEGLPNFDNNNIKGSLIITFDVDFPKEQLTEEAREGIKQLLKQGSVQKVYNGLQGY
0

The reported measurements were obtained from patent US20240261333A1.
